Ref: PubChem BioAssay (NCI)

system: UACC-62 melanoma; assay: NCI-60 one-dose screen, 48 h; settings: 10 µM unless noted
This is part of a sample that, as a whole, favours compounds with a hit. Of some 83,000 tested, about 20% had one in any assay. Calls of active or inactive are those of the source. How the source made its calls: active means growth percent below 10; inactive means the rest.
Pick one: true for active, false for inactive

Exam item: Entry `COc1ccc(-c2csc3c2-n2cccc2C3=O)cc1O` : call = ?
Marked response: false

Exam item: Same read-out for `Clc1cccc(Cl)c1Nc1ccc2nnc(-c3ccncc3)n2n1` ?
Marked response: false

Exam item: Moving on to `NC(=O)c1cc(Cl)ccc1NC(=O)COc1ccccc1`
Marked response: false

Exam item: Okay, and `O=C(Nc1ccccc1)Oc1cccc2cccnc12` ?
Marked response: false

Exam item: Please give the result for `O=C1NC(=S)S/C1=C\c1cccc([N+](=O)[O-])c1` too.
Marked response: false

Exam item: Now give it for `CN1CCn2c(c(Sc3ccc(C(=O)NO)cc3)c3ccccc32)C1=O` too.
Marked response: true

Exam item: Okay, and `O=C1c2ccccc2C(=O)c2c(Nc3ccc(CCO)cc3)ccc(O)c21` ?
Marked response: false

Exam item: Next: `CCCCC/C=C\C/C=C/CCCCCCCCNC(=O)Nc1ccc([N+](=O)[O-])cc1`
Marked response: false

Exam item: Now the same for CCOC(=O)C1=C(C)N2C(=NC3=C(CCCC/C3=C\c3ccccc3)C2c2ccccc2)S1 (stereo not drawn)
Marked response: false

Exam item: What do you have for `COc1ccc(/C=N\N2CCOCC2)cc1OC1CCCC1` ?
Marked response: false

Exam item: Query `O=C1c2c(c3c4cc(Br)ccc4[nH]c3c3ccc4ccccc4c23)C(=O)N1O` next
Marked response: false

Exam item: Follow-up entry: `Cc1cccc2c(=O)c3c(sc12)c(NCCCN)nc1ccccc13`
Marked response: false

Exam item: How about this compound: `Cc1ccc(S(=O)(=O)c2ccc3[nH]c(=O)[nH]c(=O)c3c2)cc1`
Marked response: false

Exam item: # repeat for `CCOc1ccc(/C=N\N2CCCCCC2)cc1OCC`
Marked response: false

Exam item: Next compound: `Cc1nc2cc(Nc3nc(Nc4ccc(F)cc4)nc(N4CCN(C)CC4)n3)ccc2n1Cc1ccccc1`
Marked response: true

Exam item: What about `OC[C@@H](O)[C@@H](O)CO` ?
Marked response: false

Exam item: What about this compound? `Cc1c(C(=O)Nc2nc(-c3ccccc3)cs2)nnn1-c1cccc2ccccc12`
Marked response: false

Exam item: Let us now turn to `Cc1ccc(S(=O)(=O)N(c2ccc(Cl)cc2)c2ccc(Br)cc2C(=O)O)cc1`
Marked response: false

Exam item: Also check `COc1cc(Cn2cc(F)c(=O)[nH]c2=O)cc(OC)c1`
Marked response: false

Exam item: Another compound to look at: `FC(F)(F)c1ccc2c(c1)n1cnnc1c1nncn21`
Marked response: false

Exam item: What about this compound? `CCOC(=O)c1c(Cl)c2c(n1Cc1ccc(OC)cc1)-c1oncc1CCC2`
Marked response: false

Exam item: How about this compound: `COC(=O)CCC(=O)c1ccccc1`
Marked response: false

Exam item: For O=C(NCc1ccc(F)cc1)C1CN(c2ccc(Cl)cc2)N(c2ccc(Cl)cc2)C1=O (stereo not drawn) then?
Marked response: false

----------
test system: A498 renal; test: NCI-60 one-dose screen, 48 h (100 = growth as untreated, 0 = no growth, -100 = all killed); details: 10 µM unless noted
About 83,000 compounds went through this panel and 20% of them were active in at least one assay; those are over-represented in the sample as a whole.
# label = bin(measured growth), where bins are low class (below 70%), middle class (70% to below 90%), high class (90% or more)

Exam item: Which class is correct for the following molecule? `N#Cc1c(O)c2c(c(O)c1C#N)C(=O)c1ccccc1C2=O`
Marked response: middle class

Exam item: Can you handle `Nc1ccccc1-c1n[nH]c(=O)[nH]c1=O` next?
Marked response: high class

Exam item: Another molecule to look at: `COc1nc2c(cc1S(=O)(=O)c1ccccc1)CCc1c-2cnn1-c1cccc(Cl)c1`
Marked response: low class

Exam item: Now give it for `COc1cc(/C=C/C(=O)C(=Cc2ccc(F)c(F)c2)C(=O)/C=C/c2ccc(O)c(OC)c2)ccc1O` too.
Marked response: high class

Exam item: Cool, now `Cc1cc(=O)oc2c1ccc1oc(C(=O)c3ccccc3)c(C)c12`
Marked response: middle class

Exam item: Similarly, `COc1cc2cc(Oc3ccc(NC(=O)Nc4ccc(Cl)c(C(F)(F)F)c4)cc3)c(C)nc2cc1OCCN1CCCCC1` ?
Marked response: low class

Exam item: Check `COc1ccc(-c2c3c(N)c4c(nc3nc3c2c(C)nn3-c2ccccc2)CCCC4)cc1` too.
Marked response: middle class

Exam item: Field entry: `O/N=C/c1cccs1`
Marked response: high class

Exam item: // repeat for `C[C@@H](Oc1cc(-c2cnn(C3CC4(CNC4)C3)c2)cnc1N)c1c(Cl)ccc(F)c1Cl` and report
Marked response: low class

Exam item: Now the molecule Cc1ccc(C2SCC(=O)N2NC(=O)c2[nH]c3ccc(F)cc3c2-c2ccccc2)cc1 (configuration not stated)
Marked response: middle class

Exam item: What do you have for `NS(=O)(=O)c1cc(Br)c2c(c1)S(=O)(=O)NCN2` ?
Marked response: high class

Exam item: Also `Oc1ccc(Cl)cc1CNc1nc2ccccc2[nH]1` , if possible.
Marked response: low class

Exam item: For `CCCCNNC(=O)c1ccc(Br)cc1` then?
Marked response: low class

Exam item: Now consider `FCOC(C(F)(F)F)C(F)(F)F` .
Marked response: high class

Exam item: CCN1C(=O)C2(Nc3ccccc3S2)c2cc(C)ccc21 (configuration not stated) , same question.
Marked response: high class

Exam item: And COC(=O)C1C2CC3c4[nH]c5cc(OC)ccc5c4CCN3CC2CC(OC2CCCCO2)C1OC (configuration not stated) ?
Marked response: middle class

Exam item: Next molecule up: `C=CC[P+](c1ccccc1)(c1ccccc1)c1ccccc1`
Marked response: middle class

Exam item: Now this one: O=C(NCc1ccc(F)cc1)C1CN(c2ccc(Cl)cc2)N(c2ccc(Cl)cc2)C1=O (configuration not stated)
Marked response: low class

----------
system: NCI-H460 lung; experiment: NCI-60 one-dose screen, 48 h (100 = growth as untreated, 0 = no growth, -100 = all killed); settings: 10 µM unless noted
Compounds without any hit were thinned out: in the full panel of roughly 83,000, 20% have a hit.
VALUE TYPE: growth (%)
Please respond with the number in % and leave the unit unwritten.

Exam item: Which value of growth has been reported for `COc1ccc(/C=C2\Oc3cc(C)c(Cl)cc3C2=O)cc1OC` in the records?
Marked response: 103

Exam item: # iterate: `c1ccc2c(c1)oc1cc3c(cc12)nnc1cccn13`
Marked response: 112

Exam item: What about `O=C(CCCCCCC(=O)Nc1ccc2c(c1)/C(=C/c1ccc[nH]1)C(=O)N2)NO` ?
Marked response: 25.8

Exam item: Do the same for `COc1ccc2nc(-n3nc(C)cc3C)c(-n3nc(C)cc3C)nc2c1` please
Marked response: 108

Exam item: // next record `Cc1nc2cc(Nc3nc(NCCO)nc(Nc4ccc(F)cc4)n3)ccc2n1Cc1ccccc1`
Marked response: 83.5

Exam item: Check `COc1ccc(OC)c2ncccc12` too.
Marked response: 108

Exam item: Try this molecule too: `Nc1nc2c(s1)CCc1c-2c(Br)n(Cc2ccccc2)c1Br`
Marked response: 98.2

Exam item: Next molecule up: `O=S(=O)(Nc1ccc(Cl)c(Cl)c1)c1ccc(-c2cnc(C3CC3)o2)cc1`
Marked response: 4.29

Exam item: Can you check COc1cccc(-c2ccc3c(c2)C2CCN(Cc4ccccc4)C3C2)c1 (configuration not stated) next?
Marked response: 93.5

Exam item: And what about the molecule `O=C(NCc1cccnc1)c1ccc([N+](=O)[O-])o1` ?
Marked response: -64.3

Exam item: Likewise for O=C1CN2CCC1C/C2=C\c1ccnc2c(Cl)cccc12 (configuration not stated) ?
Marked response: 116

Exam item: Next entry: COc1ccc(/C=N/NC(=O)c2cnn3c2NC(c2ccccc2)C3)cc1OC1CCCC1 (configuration not stated)
Marked response: 100

Exam item: Also need `COc1ccc(C(=O)COc2cccc(/C=C3\CSc4ccc(C)cc4C3=O)c2)cc1` , thanks.
Marked response: 104

Exam item: Also check `COc1ccc(S(=O)(=O)ON=C2C=C(C)C(=O)C(C)=C2)cc1`
Marked response: 106

Exam item: Ok, now `COc1ccc2c(c1)c(=O)oc1c(C)c(OCC(C)=O)ccc12`
Marked response: 103

Exam item: // next record `FC(F)(F)Oc1ccc2c(c1)C[C@H]1C[C@@H](c3ccoc3)N2O1`
Marked response: 114

Exam item: Could you do the same for `N#Cc1ccc(C(F)(F)F)nc1N1CCC(C(=O)Nc2ccc(Cl)cc2)CC1` , please?
Marked response: 34.1

Exam item: Can you handle `O=C(Nc1ccc(Cl)c(Cl)c1)OCn1ncc2ccc([N+](=O)[O-])cc21` next?
Marked response: 99.8

Exam item: Now consider `COc1ccc(-c2nc3sc(C)cn3c2/C=C/C(=O)c2cc(OC)c(OC)c(OC)c2)cc1` and answer again.
Marked response: 50.5

Exam item: What about `COc1ccc(/C=N\N2CCOCC2)cc1OC1CCCC1` ?
Marked response: 105

Exam item: Also need `Cc1nc2cc(Nc3nc(N4CCCCC4)nc(N4CCOCC4)n3)ccc2n1Cc1ccccc1` , thanks.
Marked response: 4.87

Exam item: // repeat for Cc1ccc(S(=O)(=O)N2CCc3ccc(O)c4c3C2CCc2ccccc2-4)cc1 (configuration not stated) and report
Marked response: 108
